- Tested on: OVCAR-3 ovarian
- assay_name: NCI-60 one-dose screen, 48 h
- assay_setup: 10 µM unless noted
- Procedure: Growth inhibition of the OVCAR-3 human tumor cell line is measured as a screen for anti-cancer activity. Cells are grown in 96 well plates and exposed to the test compound for 48 hours. Compounds are tested at a single concentration, which is 10^-5 M for most compounds. The reported endpoint is percent growth (GI% or GIPRCNT), where numbers from 0 - 100% represent growth inhibition, and numbers from -100% - 0 represent cell death. For example, a value of 40 represents 60% growth inhibition. […]
The panel holds about 83,000 compounds, 20% with a hit somewhere; the sample as a whole holds those more often. Active and inactive are the calls of the source. The calls were made as follows: active = growth percent below 10; inactive = the rest.
The categories you may choose from are t for active, f for inactive

Assay outcome for COc1ccc(/C=C/C(=O)c2ccc(NC(=O)CSc3nnc(-c4ccc(OC)c(OC)c4)n3-c3ccccc3)cc2)cc1 : what was it?
f

Assay outcome for CCCCC(=O)Nc1c(C(=O)Nc2ccccc2)sc2nc3c(cc12)C(OC(=O)CCCC)CCC3 (centres undefined) : what was it?
f

Assay outcome for CCO/C=N/S(=O)(=O)c1cc2c(cc1Cl)NC=NS2(=O)=O : what was it?
f

Assay outcome for O=CN1N=C(c2ccc(Cl)cc2)CC1c1cccc(Nc2ccnc3cc(C(F)(F)F)ccc23)c1 (centres undefined) : what was it?
f

Assay outcome for COc1ccc(-n2cc(-c3ccc(Cl)c(Cl)c3)[nH]c2=O)cc1OC : what was it?
f

Assay outcome for COc1cc(-c2csc(NC(=O)Nc3ccc(Cl)cc3)n2)cc(OC)c1OC : what was it?
f

Assay outcome for CCOC(=O)C1CCN(S(=O)(=O)/N=C2/NC(=O)NC2=C(Cl)Cl)CC1 : what was it?
t

Assay outcome for CC(/C=C/c1ccccc1)=N/NC(=O)c1ccncc1 : what was it?
f

Assay outcome for Cc1cnc(-c2ccc(-c3ccc(NC(=O)Nc4c(F)cc(F)cc4F)cc3F)c3c2C(=O)NC3)[nH]1 : what was it?
t

Assay outcome for COC(=O)/C=C/c1cc(OC)c2c(c1)[C@@H](C(=O)OC)[C@H](c1ccc(OC)c(OC)c1)O2 : what was it?
t

Assay outcome for O=C(O)C(C(=O)O)c1cccc2ccccc12 : what was it?
f

Assay outcome for CO[C@@]12C=C[C@@]34CCC(=O)N3c3ccccc3[C@@H](O1)C4C2 : what was it?
f

Assay outcome for O=C(O)c1cc(N=Nc2ccc(-c3ccc(N=Nc4c(S(=O)(=O)O)cc5ccc(Nc6ccccc6)cc5c4O)cc3)cc2)ccc1O : what was it?
f

Assay outcome for COc1cc(NCC(=O)Nc2cc(Nc3cccc(C(F)(F)F)c3)ncn2)c(Cl)c(OC)c1Cl : what was it?
f

Assay outcome for N#Cc1nc(-c2ccccc2)oc1S(=O)(=O)NCC(c1ccc(Cl)cc1)N1CCCCC1 (centres undefined) : what was it?
f

Assay outcome for O=C(Nc1cccc(-c2cccc(F)c2)c1)C1CCN(Cc2cccc3cccnc23)CC1 : what was it?
f

Assay outcome for COc1ccc(-c2cc(-c3nnc(SCC(=O)Nc4ccc(/C(C)=N\O)cc4)o3)c3ccccc3n2)cc1 : what was it?
f

Assay outcome for O=C1Nc2ccc(Cl)cc2/C1=N/c1nc(-c2ccc(Cl)cc2)cs1 : what was it?
t

Assay outcome for COc1cc(C(=O)N2CCN(c3ccccc3OC)CC2)c(NC(=O)c2cnccn2)cc1OCc1ccccc1 : what was it?
f

* * *

- Test system: BT-549 breast
- assay_name: NCI-60 one-dose screen, 48 h (100 = growth as untreated, 0 = no growth, -100 = all killed)
- assay_setup: 10 µM unless noted
About 83,000 compounds went through this panel and 20% of them were active in at least one assay; those are over-represented in the sample as a whole.
// class assignment uses growth with these ranges: low band: < 10%; middle band: ≥ 10% and < 90%; high band: ≥ 90%

Dear colleague, I would appreciate it if you could identify the bin for NCCCn1c2c(c3cc(-c4ccn[nH]4)ccc3c1=O)C(=O)c1ccccc1-2 and reply at your convenience.
middle band

Dear colleague, I would appreciate it if you could identify the bin for COc1ccc2c(c1)C1(C(=O)N2)C(C#N)=C(c2ccccc2)Nc2c1c(-c1ccccc1)nn2-c1ccccc1 (stereo unspecified) and reply at your convenience.
middle band

Dear colleague, I would appreciate it if you could identify the bin for Cc1cnc(SCc2ccc(Cl)cc2Cl)nc1Nc1ccc(Cl)c(Cl)c1 and reply at your convenience.
high band

Dear colleague, I would appreciate it if you could identify the bin for C[C@H](Oc1cc(-c2cnn(C3CCNCC3)c2)cnc1N)c1c(Cl)ccc(F)c1Cl and reply at your convenience.
middle band

Dear colleague, I would appreciate it if you could identify the bin for CC1CCCN(CCCCCOc2ccc3oc4ccccc4c(=O)c3c2)C1 (stereo unspecified) and reply at your convenience.
middle band

Dear colleague, I would appreciate it if you could identify the bin for COc1ccc2oc(=O)cc(-c3nc4ccc(N)cc4[nH]3)c2c1 and reply at your convenience.
middle band

Dear colleague, I would appreciate it if you could identify the bin for O=C(O)c1cn(C2CC2)c2cc(N3CCN(Cc4nnc(Nc5ccccc5)o4)CC3)c(F)cc2c1=O and reply at your convenience.
high band

Dear colleague, I would appreciate it if you could identify the bin for CN1C(=O)c2cc(Cl)nc3c(NC(=O)c4cccc(Cl)c4)c(Cl)c(NC(=O)c4cccc(Cl)c4)c1c23 and reply at your convenience.
low band

Dear colleague, I would appreciate it if you could identify the bin for Cc1cc(O)cc(O)c1N=NC1=NCCS1 and reply at your convenience.
high band

Dear colleague, I would appreciate it if you could identify the bin for C=C(C)[C@@H]1CC[C@]2(C(=O)OCCCC[P+](c3ccccc3)(c3ccccc3)c3ccccc3)CC[C@]3(C)[C@H](CC[C@@H]4[C@@]5(C)CC[C@H](OC(=O)C(Cl)Cl)C(C)(C)[C@@H]5CC[C@]43C)[C@@H]12 and reply at your convenience.
low band

Dear colleague, I would appreciate it if you could identify the bin for C#C[C@@]1(O)[C@@H](CO)O[C@@H](n2cc(Cl)c3c(N)ncnc32)[C@@H]1O and reply at your convenience.
low band

Dear colleague, I would appreciate it if you could identify the bin for COc1cc(C(=O)Nc2cc(OC)c3ccn(C)c3c2)cc2c1C[C@]1(C)CC[C@@H](O)C(C)(C)[C@H]1O2 and reply at your convenience.
low band

Dear colleague, I would appreciate it if you could identify the bin for COc1ccc(/C=C/C(=O)c2ccc(NC(=O)CSc3nnc(-c4ccc(OC)c(OC)c4)n3-c3ccccc3)cc2)cc1 and reply at your convenience.
middle band

Dear colleague, I would appreciate it if you could identify the bin for O=C1C(=O)c2c(nc3ccc(Br)cn23)-c2ccccc21 and reply at your convenience.
low band

Dear colleague, I would appreciate it if you could identify the bin for COc1ccccc1-c1ccc2nc(NC(=O)Nc3cc(C(F)(F)F)cc(C(F)(F)F)c3)sc2c1 and reply at your convenience.
middle band

Dear colleague, I would appreciate it if you could identify the bin for COc1ccc(-c2cc(-c3nnc(SCC(=O)Nc4ccc(/C(C)=N\O)cc4)o3)c3ccccc3n2)cc1 and reply at your convenience.
high band

Dear colleague, I would appreciate it if you could identify the bin for N#Cc1ccc(N2Cc3cc(Cl)ccc3OC3=C2C(=O)N(Cc2ccccc2)C3=O)cc1 and reply at your convenience.
low band

Dear colleague, I would appreciate it if you could identify the bin for COc1ccc(C2=NN(c3ccc(S(N)(=O)=O)cc3)C(c3ccc(Cl)cc3)C2)c(O)c1 (stereo unspecified) and reply at your convenience.
middle band

Dear colleague, I would appreciate it if you could identify the bin for O=c1nc(-c2ccccc2)c2cc(-c3ccc(N4CCCC4)nc3)ccc2[nH]1 and reply at your convenience.
middle band

Dear colleague, I would appreciate it if you could identify the bin for CC(=O)Oc1c2c(nc3c1c1ccccc1n3Cc1ccccc1)-c1ccccc1C2 and reply at your convenience.
high band

Dear colleague, I would appreciate it if you could identify the bin for C1=CC2=CC=C3C=CC=C4C(c5nc6c7ccccc7c7ccccc7c6[nH]5)=CC(=C1)C2C34 (stereo unspecified) and reply at your convenience.
high band

Dear colleague, I would appreciate it if you could identify the bin for NS(=O)(=O)c1ccc(C2C3=C(CCCC3=O)OC3=C2C(=O)c2ccccc2C3=O)cc1 (stereo unspecified) and reply at your convenience.
low band

Dear colleague, I would appreciate it if you could identify the bin for COc1cc(/C=C/C(=O)c2ccc(NC(=O)CSc3nnc(-c4cc(OC)c(OC)c(OC)c4)n3-c3ccccc3)cc2)cc(OC)c1OC and reply at your convenience.
low band

Dear colleague, I would appreciate it if you could identify the bin for CC(C)(C)CC(C)(C)Cc1ccc(OCCOCC[N+](C)(C)Cc2ccccc2)cc1 and reply at your convenience.
low band

Dear colleague, I would appreciate it if you could identify the bin for C=C1C(=O)O[C@H]2[C@H]1CC/C(COC(=O)c1cn(C)c3ccccc13)=C\CC[C@@]1(C)O[C@@H]21 and reply at your convenience.
low band

Dear colleague, I would appreciate it if you could identify the bin for N#Cc1c(-c2ccc(Cl)cc2)cc(-c2cc3ccccc3o2)nc1SCC(=O)c1ccc(Cl)cc1 and reply at your convenience.
high band

Dear colleague, I would appreciate it if you could identify the bin for C=C1C(=O)O[C@H]2[C@H]1CC/C(COC(=O)n1ccnc1)=C\CC[C@@]1(C)O[C@@H]21 and reply at your convenience.
high band

Dear colleague, I would appreciate it if you could identify the bin for Cc1cc(C)n(-c2nc(-c3cccs3)c(C#N)c(=O)[nH]2)n1 and reply at your convenience.
middle band

Dear colleague, I would appreciate it if you could identify the bin for Nc1c(C(=O)Nc2ccccc2Cl)sc2nc3c(cc12)CN(Cc1ccccc1)CC3 and reply at your convenience.
high band

Dear colleague, I would appreciate it if you could identify the bin for CCCCc1n(Cc2ccc3ccccc3c2)c2ccccc2[n+]1Cc1ccc2ccccc2c1 and reply at your convenience.
low band

Dear colleague, I would appreciate it if you could identify the bin for O=C1CC(c2ccc(O)c(O)c2)Oc2cc(O)c([C@@H]3O[C@H](CO)[C@@H](O)[C@H](O)[C@H]3O)c(O)c21 (stereo partly specified) and reply at your convenience.
high band

Dear colleague, I would appreciate it if you could identify the bin for CC(C)C1=C[C@@]23CC[C@H]4[C@](C)(COCCC#N)CCC[C@]4(C)[C@H]2C[C@@H]1[C@@H]1[C@H]3[C@@H](OCCC#N)CC[C@@H]1OCCC#N and reply at your convenience.
middle band

Dear colleague, I would appreciate it if you could identify the bin for Cc1ccc(C(=O)/C(=C/c2ccc([N+](=O)[O-])cc2)S(=O)Cc2ccccc2)cc1 (stereo unspecified) and reply at your convenience.
middle band

Dear colleague, I would appreciate it if you could identify the bin for Cc1cccc(C)c1NCc1nnc(-c2ccc(O)cc2)o1 and reply at your convenience.
high band

Dear colleague, I would appreciate it if you could identify the bin for CC1(c2ccccc2Cl)NC(=O)NC1=O (stereo unspecified) and reply at your convenience.
high band
